Target: Chk1 (Homo sapiens)
Construct: purchased Upstate Biotechnology
Sequence (O14757 whole entry): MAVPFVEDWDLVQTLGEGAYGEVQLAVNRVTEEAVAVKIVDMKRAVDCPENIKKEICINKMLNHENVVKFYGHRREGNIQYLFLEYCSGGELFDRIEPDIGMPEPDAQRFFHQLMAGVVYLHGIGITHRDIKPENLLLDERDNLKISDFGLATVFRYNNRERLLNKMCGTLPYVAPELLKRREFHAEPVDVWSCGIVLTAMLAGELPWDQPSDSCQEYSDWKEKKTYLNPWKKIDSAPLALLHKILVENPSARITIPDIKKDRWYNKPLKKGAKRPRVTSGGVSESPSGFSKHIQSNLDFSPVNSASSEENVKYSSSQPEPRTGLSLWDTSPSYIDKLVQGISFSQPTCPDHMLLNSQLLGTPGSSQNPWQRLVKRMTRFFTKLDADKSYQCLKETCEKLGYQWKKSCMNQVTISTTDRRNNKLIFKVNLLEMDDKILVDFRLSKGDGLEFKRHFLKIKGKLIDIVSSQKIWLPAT
Assay: Chk1 kinase assay: incorporation of γ-33P ATP into immobilized myelin basic protein
Assay type: biochemical
Settings: Table 11; Chk1 only; read-out: Chk1 IC50
pIC50: −log10 of the molar value.
Measured pIC50, listed per entry for reference.

// known answers, use as guide
{"compound": "CNC(=O)c1nc(-c2cccc(C(=O)NNc3ccccc3F)c2)cnc1N [Example 432]", "measure name": "pIC50", "measured": "6.00 to 7.30"}
{"compound": "CNC(=O)c1nc(-c2cccc(CNC3CCc4c(F)cccc43)c2)cnc1N (stereo not drawn) [Example 473]", "measure name": "pIC50", "measured": "6.00 to 7.30"}
{"compound": "Cc1ccc(N/N=C/c2nc(-c3cccc(C(=O)NCc4ccccc4)c3)cnc2N)cc1 [Example 680]", "measure name": "pIC50", "measured": "≤ 5.00"}
{"compound": "Cn1nc(-c2nc(-c3cccc(C(=O)N[C@H]4CCc5ccccc54)c3)cnc2N)nc1[C@@H]1CCCN(C(=O)OCc2ccccc2)C1 [Example 754]", "measure name": "pIC50", "measured": "5.00 to 6.00"}
{"compound": "Cc1nc(-c2nc(-c3cccc(C(=O)N[C@H]4CCc5ccccc54)c3)cnc2N)nn1-c1ccncc1 [Example 793]", "measure name": "pIC50", "measured": "5.00 to 6.00"}

Here is the next item to consider.
Supply measured pIC50 of CNC(=O)c1nc(-c2cc(C(=O)NC3CCNC3)cc(C(=O)N[C@H]3CCc4ccccc43)c2)cnc1N (stereo partly drawn) [Example 791] in your reply.
6.00 to 7.30

Measured values drawn from patent US7704995B2 for this set.
